# Test system: SN12C renal
# experimental-details: NCI-60 one-dose screen, 48 h (100 = growth as untreated, 0 = no growth, -100 = all killed)
# measurement-setup: 10 µM unless noted
About 83,000 compounds went through this panel and 20% of them were active in at least one assay; those are over-represented in the sample as a whole.
readout-type: growth (%)
Numeric only. Scale: %

Previously resolved entries follow.
| compound | target | result-unit | growth |
| --- | --- | --- | --- |
| COc1ccc(N/N=C/c2c(-c3ccc(S(C)(=O)=O)cc3)nc3ccccn23)cc1 | SN12C renal | % | 49.8 |
| CCOC(=O)c1c(Nc2ccccc2)nn2c(N)c(C#N)c(-c3ccc(OC)cc3)nc12 | SN12C renal | % | 86.6 |
| O=[N+]([O-])c1ccc(O)c2ncccc12 | SN12C renal | % | 42.1 |
| CN(C)CCCOc1c2ccccc2nc2c1oc1ccc(Cl)cc12 | SN12C renal | % | 12.4 |

Data request: Dear colleague, please send me the reported growth for `Clc1ccc2oc3c(NCCCN4CCOCC4)c4ccccc4nc3c2c1` when you can.
Data returned: 19.6

Data request: Return reported growth. Input compound: `Nc1c(C(=O)Nc2ccc(C(F)(F)F)cc2)sc2nc(-c3cnccn3)cc(-c3cccs3)c12`
Data returned: 94.9

Data request: Determine from records and report growth for Nc1nc(N)c2c(n1)NC(c1ccc(C(F)(F)F)cc1)CC(c1ccc(Nc3nc(NCCO)nc(Nc4ccc(Cl)cc4)n3)cc1)=N2 (stereo not drawn)
Data returned: -40.2

Data request: Look up and state reported growth for `O=C(CCN1C(=O)/C(=C/c2ccccc2)SC1=S)N1CCOCC1`
Data returned: 81.7

Data request: Assign growth to the following record: OC1CCc2c(-c3ccc4ncnc(N5CCc6cc(F)c(Cl)cc65)c4c3)cncc21 (stereo not drawn)
Data returned: 39.3

Data request: Give recorded growth. `[Cl][Ru].c1ccc(-c2cccc(-c3ccccn3)n2)nc1.c1ccc(-c2ccnc3c2ccc2c(-c4ccccc4)ccnc23)cc1`
Data returned: 20.1

Data request: Identify measured growth associated with `CN(C)S(=O)(=O)c1oc(-c2ccccc2)nc1C#N`
Data returned: 72.4

Data request: // fetch growth given entry `O=C(N/N=C/c1ccc[nH]1)c1[nH]c2ccc(Br)cc2c1-c1ccccc1`
Data returned: 28.7

Data request: Provide growth value for the following compound: CCCC(=O)NC(c1cccc(N(C)C)c1)c1cc(C)c2cccnc2c1O (stereo not drawn)
Data returned: 78.2

Data request: Give reported growth value for `CCOc1ccc2nc(NC(=O)c3ccc(C(F)(F)F)cc3)sc2c1`
Data returned: 101

Data request: Write down growth measured for item `O=C(O)CCCCCN1C(=O)/C(=C/c2ccc(O)c(O)c2)SC1=S`
Data returned: 98.5

Data request: State its growth for this compound: `OC1CCN(CCCOc2c3ccc(Cl)cc3nc3c2oc2ccccc23)CC1`
Data returned: 6.58

Data request: Give growth for the following compound: `COC(=O)c1ccc(NC(=S)N2CCc3ccc([N+](=O)[O-])cc3C2)cc1O`
Data returned: 99.8

Data request: Provide only the value of recorded growth for `Cc1cc2nc3c4cc(Cl)ccc4n(CC(=O)NCCN(C)C)c3nc2cc1C`
Data returned: 79.8

Data provenance: PubChem BioAssay (NCI)
